Where no end group is shown, it is not given here.
EXPERIMENTAL READOUT: fold higher TIall vs kiadin-2 (fold)
Response body: numeric value in fold, unit text excluded.

// sample KIAKVALKALKIAKVALKAL-NH2 (C-terminus assumed) [DiPGLa-H] , its fold higher TIall vs kiadin-2 was 2.5

====

test system: A. baumannii ATCC19606; type: cell-based, Acinetobacter baumannii; settings: ATCC19606, 4 h
Where no end group is shown, it is not given here.
EXPERIMENTAL READOUT: MBC A. baumannii ATCC19606 (µM)
Response body: numeric value in µM, unit text excluded.

// sample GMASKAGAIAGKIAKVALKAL-NH2 (C-terminus assumed) [PGLa] , its MBC A. baumannii ATCC19606 was 16

// sample GMASKAGSVLGKVAKVALKAAL-NH2 (C-terminus assumed) [PGLa-AM1] , its MBC A. baumannii ATCC19606 was 32

// sample KIAKGALKALKIAKVALKAL-NH2 (C-terminus assumed) [kiadin-2] , its MBC A. baumannii ATCC19606 was 4

// sample KIAKVALKALKIAKGALKAL-NH2 (C-terminus assumed) [kiadin-1] , its MBC A. baumannii ATCC19606 was 4

// sample KIAKVALKALKIAKVALKAL-NH2 (C-terminus assumed) [DiPGLa-H] , its MBC A. baumannii ATCC19606 was 4
